Kindly state Extracellular vesicle concentration for each of the entries shown.
- study-target: MMP14 in the MDA-MB-231-derived extracellular vesicles (Homo sapiens)
- Construct: in terms of intact MMP14 with a molecular weight of 70 kDa
- assay-comment: Digital detection of MDA-MB-231-derived extracellular vesicles through MMP14 activity in wells (microcompartments)
- Format: biochemical
- details: Example 38, 24 hr, at a concentration of x1, 50 fL
No end group written: not given here. *: point of attachment. 5FAM = O=C1OC2(c3ccc(O)cc3Oc3cc(O)ccc32)c2ccc(C(=O)*)cc21; TQ2 = quencher
Only the number, expressed in mL⁻¹, is required.

Name the recorded Extracellular vesicle concentration of TQ2-YPPRPLLARK(5-FAM) (TQ2-YPPRPLLARK(5FAM)) [Custom #15] , assay system MMP14 in the MDA-MB-231-derived extracellular vesicles (Homo sapiens).
2.289e+10

Name the recorded Extracellular vesicle concentration of TQ2-FMPLGLRGIK(5-FAM) (TQ2-FMPLGLRGIK(5FAM)) [Custom #12] , assay system MMP14 in the MDA-MB-231-derived extracellular vesicles (Homo sapiens).
2.464e+10

Name the recorded Extracellular vesicle concentration of TQ2-WPHGSLQAAK(5-FAM) (TQ2-WPHGSLQAAK(5FAM)) [Custom #16] , assay system MMP14 in the MDA-MB-231-derived extracellular vesicles (Homo sapiens).
7.845e+09

Name the recorded Extracellular vesicle concentration of TQ2-DLPAGLQARK(5-FAM) (TQ2-DLPAGLQARK(5FAM)) [Custom #14] , assay system MMP14 in the MDA-MB-231-derived extracellular vesicles (Homo sapiens).
3.142e+10

Name the recorded Extracellular vesicle concentration of TQ2-LAPLGLQRRK(5-FAM) (TQ2-LAPLGLQRRK(5FAM)) [Custom #11] , assay system MMP14 in the MDA-MB-231-derived extracellular vesicles (Homo sapiens).
2.3319e+10

Name the recorded Extracellular vesicle concentration of TQ2-WYPAGLRMVK(5-FAM) (TQ2-WYPAGLRMVK(5FAM)) [Custom #13] , assay system MMP14 in the MDA-MB-231-derived extracellular vesicles (Homo sapiens).
2.101e+10

###

- study-target: MMP14 in the MDA-MB-231-derived extracellular vesicles (Homo sapiens)
- Construct: in terms of intact MMP14 with a molecular weight of 70 kDa
- assay-comment: Digital detection of MDA-MB-231-derived extracellular vesicles through MMP14 activity in wells (microcompartments)
- Assay type: biochemical
- details: Example 38, EV 2.5 μg/mL, reporter 5 μM, 30° C., 24 hr
No end group written: not given here. *: point of attachment. 5FAM = O=C1OC2(c3ccc(O)cc3Oc3cc(O)ccc32)c2ccc(C(=O)*)cc21; TQ2 = quencher
observable: Number of positives

Output Number of positives of TQ2-YPPRPLLARK(5-FAM) (TQ2-YPPRPLLARK(5FAM)) [Custom #15]
6,988

Output Number of positives of TQ2-WPHGSLQAAK(5-FAM) (TQ2-WPHGSLQAAK(5FAM)) [Custom #16]
2,623

Output Number of positives of TQ2-WYPAGLRMVK(5-FAM) (TQ2-WYPAGLRMVK(5FAM)) [Custom #13]
6,485

Output Number of positives of TQ2-DLPAGLQARK(5-FAM) (TQ2-DLPAGLQARK(5FAM)) [Custom #14]
9,120

Output Number of positives of TQ2-LAPLGLQRRK(5-FAM) (TQ2-LAPLGLQRRK(5FAM)) [Custom #11]
7,100

Output Number of positives of TQ2-FMPLGLRGIK(5-FAM) (TQ2-FMPLGLRGIK(5FAM)) [Custom #12]
7,423

###

- study-target: MMP14 in the MDA-MB-231-derived extracellular vesicles (Homo sapiens, UniProt P50281)
- Construct: in terms of intact MMP14 with a molecular weight of 70 kDa
- assay-comment: Digital detection of MDA-MB-231-derived extracellular vesicles through MMP14 activity in wells (microcompartments)
- Assay type: biochemical
- details: Example 38, EV 2.5 μg/mL, reporter 5 μM, 30° C., 4 hr
No end group written: not given here. *: point of attachment. 5FAM = O=C1OC2(c3ccc(O)cc3Oc3cc(O)ccc32)c2ccc(C(=O)*)cc21; TQ2 = quencher
observable: Positive ratio
Please give the numeric answer without any surrounding text.

Output Positive ratio of TQ2-WYPAGLRMVK(5-FAM) (TQ2-WYPAGLRMVK(5FAM)) [Custom #13]
0.1275

Output Positive ratio of TQ2-YPPRPLLARK(5-FAM) (TQ2-YPPRPLLARK(5FAM)) [Custom #15]
0.1173

Output Positive ratio of TQ2-LAPLGLQRRK(5-FAM) (TQ2-LAPLGLQRRK(5FAM)) [Custom #11]
0.127

Output Positive ratio of TQ2-DLPAGLQARK(5-FAM) (TQ2-DLPAGLQARK(5FAM)) [Custom #14]
0.2181

Output Positive ratio of TQ2-FMPLGLRGIK(5-FAM) (TQ2-FMPLGLRGIK(5FAM)) [Custom #12]
0.1216

Output Positive ratio of TQ2-WPHGSLQAAK(5-FAM) (TQ2-WPHGSLQAAK(5FAM)) [Custom #16]
0.01677

###

- study-target: MMP14 in the MDA-MB-231-derived extracellular vesicles (Homo sapiens, UniProt P50281)
- Construct: in terms of intact MMP14 with a molecular weight of 70 kDa
- assay-comment: Digital detection of MDA-MB-231-derived extracellular vesicles through MMP14 activity in wells (microcompartments)
- Type: biochemical
- details: Example 38, 4 hr
No end group written: not given here. *: point of attachment. 5FAM = O=C1OC2(c3ccc(O)cc3Oc3cc(O)ccc32)c2ccc(C(=O)*)cc21; TQ2 = quencher
observable: Expected value λ (×1)

Output Expected value λ (×1) of TQ2-DLPAGLQARK(5-FAM) (TQ2-DLPAGLQARK(5FAM)) [Custom #14]
0.9841

Output Expected value λ (×1) of TQ2-WYPAGLRMVK(5-FAM) (TQ2-WYPAGLRMVK(5FAM)) [Custom #13]
0.5455

Output Expected value λ (×1) of TQ2-WPHGSLQAAK(5-FAM) (TQ2-WPHGSLQAAK(5FAM)) [Custom #16]
0.06766

Output Expected value λ (×1) of TQ2-YPPRPLLARK(5-FAM) (TQ2-YPPRPLLARK(5FAM)) [Custom #15]
0.4993

Output Expected value λ (×1) of TQ2-LAPLGLQRRK(5-FAM) (TQ2-LAPLGLQRRK(5FAM)) [Custom #11]
0.5433

Output Expected value λ (×1) of TQ2-FMPLGLRGIK(5-FAM) (TQ2-FMPLGLRGIK(5FAM)) [Custom #12]
0.5189

###

- Tested on: MMP in the MDA-MB-231-derived extracellular vesicles
- assay-comment: Digital detection of MDA-MB-231-derived extracellular vesicles through MMP activity in wells (SB substrates)
- Format: biochemical, Human
- details: Example 35, 6 h, at a concentration of x1, 50 fL
*: point of attachment. 5FAM = O=C1OC2(c3ccc(O)cc3Oc3cc(O)ccc32)c2ccc(C(=O)*)cc21
observable: Extracellular vesicle concentration (mL⁻¹)
Only the number, expressed in mL⁻¹, is required.

Output Extracellular vesicle concentration of QXL520-Pro-Tyr-Ala-Tyr-Trp-Met-Arg-Lys(5-FAM)-NH2 (QXL520-PYAYWMRK(5FAM)-NH2) [SB7]
6.8e+10

Output Extracellular vesicle concentration of QXL520-Arg-Pro-Leu-Ala-Leu-Trp-Arg-Lys(5-FAM)-NH2 (QXL520-RPLALWRK(5FAM)-NH2) [SB9]
4.7e+10

Output Extracellular vesicle concentration of QXL520-Pro-Leu-Gly-Met-Trp-Ser-Arg-Lys(5-FAM)-NH2 (QXL520-PLGMWSRK(5FAM)-NH2) [SB6]
4.3e+10

Output Extracellular vesicle concentration of QXL520-Pro-Leu-Ala-Leu-Trp-Ala-Arg-Lys(5-FAM)-NH2 (QXL520-PLALWARK(5FAM)-NH2) [SB2]
5.3e+10

###

- System: MMP in the MDA-MB-231-derived extracellular vesicles
- assay-comment: Digital detection of MDA-MB-231-derived extracellular vesicles through MMP activity in wells (SB substrates)
- Format: biochemical, Human
- details: Example 35, 30° C., 6 h, EV 1/4 a.u.
*: point of attachment. 5FAM = O=C1OC2(c3ccc(O)cc3Oc3cc(O)ccc32)c2ccc(C(=O)*)cc21
observable: Positive ratio
Please give the numeric answer without any surrounding text.

Output Positive ratio of QXL520-Arg-Pro-Leu-Ala-Leu-Trp-Arg-Lys(5-FAM)-NH2 (QXL520-RPLALWRK(5FAM)-NH2) [SB9]
0.2503

Output Positive ratio of QXL520-Pro-Leu-Gly-Met-Trp-Ser-Arg-Lys(5-FAM)-NH2 (QXL520-PLGMWSRK(5FAM)-NH2) [SB6]
0.4201

Output Positive ratio of QXL520-Pro-Leu-Ala-Leu-Trp-Ala-Arg-Lys(5-FAM)-NH2 (QXL520-PLALWARK(5FAM)-NH2) [SB2]
0.2985

Output Positive ratio of QXL520-Pro-Tyr-Ala-Tyr-Trp-Met-Arg-Lys(5-FAM)-NH2 (QXL520-PYAYWMRK(5FAM)-NH2) [SB7]
0.3085
